Each item that follows carries a reported pIC50.
Target: human ADAMTS-5 (Homo sapiens (Human))
Sequence (Q9UNA0 262-930): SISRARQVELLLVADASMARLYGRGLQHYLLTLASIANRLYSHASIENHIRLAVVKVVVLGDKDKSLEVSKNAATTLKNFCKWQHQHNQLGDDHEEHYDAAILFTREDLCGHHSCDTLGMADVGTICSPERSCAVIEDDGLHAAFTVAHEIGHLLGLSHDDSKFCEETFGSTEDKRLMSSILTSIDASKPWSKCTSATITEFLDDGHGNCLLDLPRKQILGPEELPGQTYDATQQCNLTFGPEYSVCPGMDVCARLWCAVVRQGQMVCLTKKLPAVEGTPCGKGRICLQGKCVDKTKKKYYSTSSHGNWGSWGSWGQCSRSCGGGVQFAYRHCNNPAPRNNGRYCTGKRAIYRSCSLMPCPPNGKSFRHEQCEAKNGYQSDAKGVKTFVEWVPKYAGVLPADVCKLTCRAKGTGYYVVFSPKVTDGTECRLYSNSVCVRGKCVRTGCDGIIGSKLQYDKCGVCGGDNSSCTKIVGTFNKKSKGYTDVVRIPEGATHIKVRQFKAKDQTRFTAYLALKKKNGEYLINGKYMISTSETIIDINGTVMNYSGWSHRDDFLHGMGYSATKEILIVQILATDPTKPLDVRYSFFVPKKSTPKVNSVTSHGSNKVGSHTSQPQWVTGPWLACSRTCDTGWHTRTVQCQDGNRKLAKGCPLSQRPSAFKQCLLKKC
Conditions: read-out: hADAMTS-5 potency IC50
Would you please state pIC50, meaning minus log10 of the concentration in mol/L, as a bare number?

Sample answers from the record:
| COMPOUND | TARGET OF ASSAY | pIC50 |
| --- | --- | --- |
| C[C@H]1CN(C(=O)CCC2(c3ccn(C)n3)NC(=O)NC2=O)CCN1c1cc(F)cc(F)c1 (stereo partly shown) | human ADAMTS-5 (Homo sapiens (Human)) | 7.31 |
| C[C@H]1CN(C(=O)CCC2(c3cocn3)NC(=O)NC2=O)CCN1c1cc(F)cc(F)c1 (stereo partly shown) | human ADAMTS-5 (Homo sapiens (Human)) | 7.30 |
| C[C@H]1CN(C(=O)CCC2(c3cnn(C)c3)NC(=O)NC2=O)CCN1c1cc(F)cc(F)c1 (stereo partly shown) | human ADAMTS-5 (Homo sapiens (Human)) | 7.43 |
| Cc1c(Cl)cc(Cl)cc1N1CCN(C(=O)C(C)CC2(C)NC(=O)NC2=O)C[C@@H]1C (stereo partly shown) | human ADAMTS-5 (Homo sapiens (Human)) | 7.24 |

Query :: Output reported pIC50 of the compound CC(CC1(c2ccccn2)NC(=O)NC1=O)C(=O)N1CCN(c2ccc(F)c(F)c2)[C@@H](C)C1 (stereo partly shown) on human ADAMTS-5 (Homo sapiens (Human)).
Result :: 7.72

Query :: # assay system human ADAMTS-5 (Homo sapiens (Human)): give pIC50 of CC(CC1(C)NC(=O)NC1=O)C(=O)N1CCN(c2ccc(F)cc2)[C@@H](C)C1 (stereo partly shown)
Result :: 7.14

Query :: Give measured pIC50 for O=C1NC(=O)C(CCC(=O)N2CCN(c3cc(Cl)cc(Cl)c3)CC2)(CNCc2ccccc2)N1 (stereo not shown) (human ADAMTS-5 (Homo sapiens (Human))).
Result :: 7.01

Query :: Find the measured pIC50 of C[C@H]1CN(C(=O)CCC2(C3CC3)NC(=O)NC2=O)CCN1c1cccc(-c2ccnn2C)c1 (stereo partly shown) with human ADAMTS-5 (Homo sapiens (Human)) as test system.
Result :: 6.59

Query :: Provide pIC50, system human ADAMTS-5 (Homo sapiens (Human)), entry C[C@H]1CN(C(=O)CCC2(C3CC3)NC(=O)NC2=O)CCN1c1cc(F)cc(-c2cn[nH]c2)c1 (stereo partly shown)
Result :: 7.22

Query :: Report pIC50 on human ADAMTS-5 (Homo sapiens (Human)) for this entry: Cc1ccc(N2CCN(C(=O)CCC3(C4CC4)NC(=O)NC3=O)C[C@@H]2C)cc1Cl (stereo partly shown)
Result :: 7.17

Query :: Fill in: pIC50 on human ADAMTS-5 (Homo sapiens (Human)), entry COCC1(CC(C)C(=O)N2CCN(c3cc(F)c(Cl)c(F)c3)CC2)NC(=O)NC1=O (stereo not shown) [compound 279]
Result :: 7.72

Query :: For human ADAMTS-5 (Homo sapiens (Human)), give pIC50 of the listed compound: CC(C)(C)OC(=O)CC1(CCC(=O)N2CCN(c3cc(Cl)cc(Cl)c3)CC2)NC(=O)NC1=O (stereo not shown)
Result :: 7.28

Query :: Retrieve pIC50 on human ADAMTS-5 (Homo sapiens (Human)); query CC(CC1(c2ccccn2)NC(=O)NC1=O)C(=O)N1CCN(c2ccc(F)c(Cl)c2)[C@@H](C)C1 (stereo partly shown) [compound 437]
Result :: 7.77

Query :: Check human ADAMTS-5 (Homo sapiens (Human)) data and give pIC50 for C[C@H]1CN(C(=O)CCC2(C)NC(=O)NC2=O)CCN1c1ccc(F)c(F)c1 (stereo partly shown) .
Result :: 6.68

Query :: Look up and report measured pIC50 (human ADAMTS-5 (Homo sapiens (Human))) for the following compound: C[C@H]1CN(C(=O)CCC2(c3ccccn3)NC(=O)NC2=O)CCN1c1cc(F)cc(F)c1 (stereo partly shown)
Result :: 7.47
